Each entry below carries its recorded enrichment ratio.
B1: PhoQ; a variant is named by its letters at X, in order, P23837 (parent)
chain: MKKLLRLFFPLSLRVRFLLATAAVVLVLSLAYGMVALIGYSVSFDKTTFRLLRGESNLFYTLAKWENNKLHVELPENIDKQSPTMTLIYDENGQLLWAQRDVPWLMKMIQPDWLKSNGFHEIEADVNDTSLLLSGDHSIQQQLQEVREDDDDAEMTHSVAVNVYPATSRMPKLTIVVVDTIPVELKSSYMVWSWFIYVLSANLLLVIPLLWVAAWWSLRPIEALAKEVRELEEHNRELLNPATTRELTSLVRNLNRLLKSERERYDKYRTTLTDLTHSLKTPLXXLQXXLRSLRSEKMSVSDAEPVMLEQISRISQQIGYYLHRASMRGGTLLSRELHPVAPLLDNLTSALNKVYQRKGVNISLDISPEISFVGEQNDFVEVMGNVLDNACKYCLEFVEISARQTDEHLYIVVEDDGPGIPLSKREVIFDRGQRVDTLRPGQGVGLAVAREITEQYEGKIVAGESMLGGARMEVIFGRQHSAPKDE

variants of: B1; assay: enrichment ratio after two sorts for PhoP signalling (ratio (wild type AVST 3.29)); higher = more functional; conditions: with PhoP (E. coli)
Whole data set: some 140,000 sequences, median “enrichment ratio after two sorts for PhoP signalling” near 0, cut for the highest 2% near 11. This is one part of a sample in which the highest values are shown more often than they occur.

{"columns": ["changes", "enrichment ratio"],
 "data": [
  ["TMHG", 13.3],
  ["HPHQ", "≤ 0.25"],
  ["TTWT", 15]
]}

query: Data request, read-out enrichment ratio, for MRWT
result: ≤ 0.25

query: Data request, read-out enrichment ratio, for MSFY
result: 12.3
